From: PubChem BioAssay AID1159580

Assay Notes: chemical genetic growth profiling, strain panel (AID 1159580);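 note: tested at 20 µM; growth read once vehicle control cultures reached saturation at 30 °C; 1 = growth at the plate median or of vehicle wells; lower values mean less growth of the strain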
Applied Conditions: S. cerevisiae deletion strains, growth OD, locus YLR370C, strain arc18, active compounds read low
About 2,000 (36%) of roughly 5,500 compounds were called active. Another 18% or so got no clear call; they are omitted. The list shows a part of the results.
Measured Property: normalized growth
Answers are plain numbers.

Could you tell me normalized growth for each of these compounds? They are listed below.
1. CS(=O)(=O)c1ccc([C@@H](O)[C@@H](CO)NC(=O)C(Cl)Cl)cc1
2. CN(C)[C@@H]1C(=O)C(C(N)=O)=C(O)[C@@]2(O)C(=O)C3=C(O)c4c(O)ccc(Cl)c4[C@@](C)(O)[C@H]3C[C@@H]12
3. Cc1cc(=O)oc2cc(O)c(O)cc12
4. COc1ccccc1OCC(O)CO (stereo unspecified)
5. CCCSc1ccc2nc(NC(=O)OC)[nH]c2c1
6. CC(=O)O[C@@H]1CC2C(C)(C)[C@H](O)C=C[C@]2(C)C2CC[C@]3(C)C(=CC(=O)O[C@H]3c3ccoc3)[C@@]21C (stereo partly specified)

1. 1.03
2. 0.96
3. 0.982
4. 1.02
5. 1
6. 0.992

---

Exercise: state measured normalized growth for each of the molecules provided.
Assay Notes: chemical genetic growth profiling, strain panel (AID 1159580)
Applied Conditions: S. cerevisiae deletion strains, growth OD, locus YML124C, strain tub3, active compounds read low
The whole screen tested about 5,500 compounds, of which about 2,000 (36%) were called active. Not shown: some 18% with an inconclusive outcome. Some of the results follow.
One number for each entry.

Could you tell me normalized growth for each of these molecules? They are listed below.
1. CC(CCC(=O)O)[C@H]1CCC2C3CC[C@@H]4CC(=O)CC[C@]4(C)C3C=C[C@@]21C (some centres undefined)
2. Nc1ccc(C(=O)O)cc1
3. CCC(C)C(=O)OC1[C@@H]2CC3=C4CC(=O)O[C@@H](c5ccoc5)[C@]4(C)CCC3[C@@](C)(C2=O)[C@@H](CC(=O)OC)C1(C)C (some centres undefined)
4. CCC(C)[C@H]1O[C@]2(C=C[C@@H]1C)C[C@@H]1C[C@@H](C/C=C(\C)[C@@H](OC3C[C@H](OC)C(O[C@H]4C[C@H](OC)[C@@H](O)[C@H](C)O4)[C@H](C)O3)[C@@H](C)/C=C/C=C3\CO[C@@H]4[C@H](O)C(C)=C[C@@H](C(=O)O1)[C@]34O)O2 (some centres undefined)

1: 1.04; 2: 1.01; 3: 1.01; 4: 1.01

---

Assay Notes: chemical genetic growth profiling, strain panel (AID 1159580)
Applied Conditions: S. cerevisiae deletion strains, growth OD, locus YNL183C, strain NPR1, active compounds read low
About 2,000 (36%) of roughly 5,500 compounds were called active. Roughly 18% stayed inconclusive and do not appear here. Some of the results follow.
For each record, check the reported normalized growth: if it is below 0.9 write Condition met, else write Condition not met.

> print(dat)
                        structure.as.smiles  qualitative.label
1  CC(C)(C)c1cc(C(=O)NNc2cccc(Cl)c2)n(Cc2ccccc2)n1  Condition not met
2        Nc1ccc(S(=O)(=O)NC(=O)c2ccccc2)cc1  Condition not met
3              O=C(NOC(=O)c1ccccc1)c1ccccc1      Condition met

Here's an entry: CCCN(CCC)S(=O)(=O)c1ccc(C(=O)O)cc1 . Is its normalized growth below 0.9?
Condition not met

Same read-out for NC(=O)c1cccnc1 ?
Condition not met

Same read-out for O=C(O)c1ccccc1 ?
Condition met

---

Assay Notes: chemical genetic growth profiling, strain panel (AID 1159580)
Applied Conditions: S. cerevisiae deletion strains, growth OD, locus YLL041C, strain sdh2, active compounds read low
Hit rate of the full screen: of about 5,500 compounds, about 2,000 (36%) were called active. About 18% were inconclusive and are not listed. This is one part of the list.
Exercise: state measured normalized growth for each of the compounds provided.
Give bare numbers.

Take a look at these entries with their results.
> print(dat)
                                   compound  test.value
1  CC(CCC(=O)O)[C@H]1CCC2C3CC[C@@H]4C[C@H](O)CC[C@]4(C)C3C=C[C@@]21C (some centres not stated)           1
2  CCOC(=O)[C@H](CCc1ccccc1)N[C@@H](C)C(=O)N1CCC[C@H]1C(=O)O        1.01
3  CC(CCC(=O)O)[C@H]1CCC2C3C(=O)C[C@@H]4CC(=O)CC[C@]4(C)C3CC(=O)[C@@]21C (some centres not stated)       0.993

Could you tell me normalized growth for each of these compounds? They are listed below.
1. CCN1CCN(C(=O)NC(C(=O)N[C@@H]2C(=O)N3[C@@H]2SC(C)(C)[C@@H]3C(=O)O)c2ccccc2)C(=O)C1=O (some centres not stated)
2. NS(=O)(=O)c1cc2c(cc1Cl)NC(CSCc1ccccc1)=NS2(=O)=O
3. C[C@H](CCC(=O)O)[C@H]1CCC2C3C(=O)CC4CC(=O)CC[C@]4(C)C3CC(=O)[C@@]21C (some centres not stated)

1: 0.997; 2: 1.02; 3: 0.978

Could you share which normalized growth value was measured for CN1CCN(C(=O)OC2c3nccnc3C(=O)N2c2ccc(Cl)cn2)CC1 (configuration not stated) ?
1.01

---

Assay Notes: chemical genetic growth profiling, strain panel (AID 1159580);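 note: tested at 20 µM; growth read once vehicle control cultures reached saturation at 30 °C; 1 = growth at the plate median or of vehicle wells; lower values mean less growth of the strain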
Applied Conditions: S. cerevisiae deletion strains, growth OD, locus YLR384C, strain iki3, active compounds read low
About 2,000 (36%) of roughly 5,500 compounds were called active. Inconclusive results (about 18%) are left out. Some of the results follow.
Measured Property: normalized growth

Take a look at these entries with their results.
Compound	Test Value
CN1CCN(C(=O)OC2c3nccnc3C(=O)N2c2ccc(Cl)cn2)CC1 (stereo not drawn)	0.994 (inactive)
C=C1C[C@]23C[C@@]1(O)CC[C@H]2[C@@]12C=C[C@H](O)[C@@](C)(C(=O)O1)[C@H]2[C@@H]3C(=O)O	1.04 (inactive)

Could you tell me normalized growth for each of these compounds? They are listed below.
1. Nc1ccc(S(=O)(=O)NC(=O)c2ccccc2)cc1
2. CO[C@H]1CC(O[C@@H]2/C(C)=C/C[C@@H]3C[C@@H](C[C@]4(CC[C@H](C)[C@@H](C5CCCCC5)O4)O3)OC(=O)[C@@H]3C=C(C)/C(=N\O)[C@H]4OC/C(=C\C=C\[C@@H]2C)[C@]43O)O[C@@H](C)C1O (stereo partly drawn)
3. O=C(NCO)c1cccnc1
4. CC(=O)N[C@@H](Cc1c[nH]c2ccccc12)C(N)=O
5. Cc1scc2c1N(C(=O)CN1CCN(C)CC1)c1ccccc1NC2=O
6. C[n+]1ccccc1/C=N/O

0.998 (inactive)
1.01 (inactive)
0.997 (inactive)
1.03 (inactive)
0.962 (inactive)
1 (inactive)

---

Exercise: state measured normalized growth for each of the compounds provided.
Assay Notes: chemical genetic growth profiling, strain panel (AID 1159580);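 note: tested at 20 µM; growth read once vehicle control cultures reached saturation at 30 °C; 1 = growth at the plate median or of vehicle wells; lower values mean less growth of the strain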
Applied Conditions: S. cerevisiae deletion strains, growth OD, locus YLR371W, strain rom2, active compounds read low
In all, about 5,500 compounds went through this assay and about 2,000 (36%) were called active. Not shown: some 18% with an inconclusive outcome. This is one part of the list.
Numbers only.

Compound	Test Value
NNCc1cccc(O)c1	0.967
NS(=O)(=O)c1cc2c(cc1Cl)NC(CSCc1ccccc1)=NS2(=O)=O	0.974
C=C1C[C@]23C[C@@]1(O)CC[C@H]2[C@@]12C=C[C@H](O)[C@@](C)(C(=O)O1)[C@H]2[C@@H]3C(=O)O	0.992
CC[N+](C)(C)c1cccc(O)c1	0.969

Could you tell me normalized growth for each of these compounds? They are listed below.
1. Oc1cccc(O)c1
2. C[C@H](CCC(=O)O)[C@H]1CCC2C3C(=O)CC4CC(=O)CC[C@]4(C)C3CC(=O)[C@@]21C (stereo not given in full)
3. COc1ccc([C@@H]2CC(=O)c3c(O)cc(O[C@@H]4O[C@H](CO[C@H]5O[C@@H](C)[C@H](O)[C@@H](O)[C@H]5O)[C@@H](O)[C@H](O)[C@H]4O)cc3O2)cc1O
4. CC(C)CC(NC(=O)OCC1c2ccccc2-c2ccccc21)C(=O)O (stereo not given)
5. CC(=O)N[C@@H](Cc1c[nH]c2ccccc12)C(N)=O
6. C[n+]1ccccc1/C=N/O

[0.992, 1, 0.971, 1.01, 1.01, 0.993]

---

Assay Notes: chemical genetic growth profiling, strain panel (AID 1159580);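 note: tested at 20 µM; growth read once vehicle control cultures reached saturation at 30 °C; 1 = growth at the plate median or of vehicle wells; lower values mean less growth of the strain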
Applied Conditions: S. cerevisiae deletion strains, growth OD, locus YMR125W, strain sto1, active compounds read low
In all, about 5,500 compounds went through this assay and about 2,000 (36%) were called active. About 18% were inconclusive and are not listed. Some of the results follow.
Exercise: state measured normalized growth for each of the molecules provided.
Answers are plain numbers.

Could you tell me normalized growth for each of these molecules? They are listed below.
1. O=C(O)c1cc(O)c2c(c1)[C@@H]([C@H]1c3cc(C(=O)O)cc(O)c3C(=O)c3c(O[C@H]4O[C@H](CO)[C@@H](O)[C@H](O)[C@H]4O)cccc31)c1cccc(O[C@H]3O[C@H](CO)[C@@H](O)[C@H](O)[C@H]3O)c1C2=O
2. CC(CCc1ccccc1)NCC(O)c1ccc(O)c(C(N)=O)c1 (stereo unspecified)

1. 1.02
2. 0.997
